Test system: T-47D breast
method description: NCI-60 one-dose screen, 48 h (100 = growth as untreated, 0 = no growth, -100 = all killed)
applied conditions: 10 µM unless noted
The panel holds about 83,000 compounds, 20% with a hit somewhere; the sample as a whole holds those more often.
measured quantity: growth (%)
Give the quantity in %, number only.

Q. Could you tell me which growth is on file for `CCCCCCCCCCCCCCCCCC(=O)Nc1ccc(O)cc1` ?
A. 93.6

Q. Fill in: growth of `Nc1ccc(N=Nc2ccccc2)c2cc(S(=O)(=O)O)ccc12` is ___
A. 97

Q. Name the recorded growth for `COc1nc(OC)nc(-c2cc(-c3cc(OC)c(OC)c(OC)c3)no2)n1` .
A. 103

Q. Quick check: growth of `N#CCCCCCCCCCCC#N` ?
A. 96.2

Q. For `COc1ccc2nc3cc(Cl)ccc3c(NCCCNC(C)=O)c2c1` , what is its reported growth?
A. 38.1

Q. Consider the compound Cc1ccc(C(=O)C(Br)C(Br)c2ccccc2)cc1 (stereo unspecified) and give its measured growth.
A. 71.5
